Test system: Zika virus NS2B-NS3 protease (unlinked)
Method Summary: Optimization of GU AMC qHTS for Zika virus inhibitors: Unlinked NS2B-NS3 protease assay (AID 1347151); note: nearly all actives have a fitted effect of over 80% in size
Details: recombinant ZIKV NS2B-NS3 protease, fluorogenic AMC substrate; series mostly up to 52.5 µM
Records with an inconclusive call do not appear. Active and inactive are the calls of the source. Calls come from the whole dose curve; as a rule, active = well fitted inhibition curve with a large enough effect; inconclusive = small, poorly fitted or top-dose-only effect; inactive = no such curve, though single readings can be large or run the other way.
Pick one: y for active, n for inactive

Request: Can you look up the reported call for CC(C)NCC(O)c1ccc(O)c(O)c1 (configuration not stated) for me?
Response: n

Request: Same question, "CN(C)CCCN1c2ccccc2CCc2ccc(Cl)cc21" this time
Response: n

Request: Next molecule up: "Nc1ccn([C@H]2CC[C@@H](CO)O2)c(=O)n1"
Response: n

Request: Same again, this time with "CN(C)CCOC(c1ccccc1)c1ccccc1"
Response: n

Request: What do we get for "O=C1N(c2ccccc2)c2ccccc2C1(Cc1ccncc1)Cc1ccncc1" ?
Response: n

Request: // same read-out, input: "COc1cc2c(c(OC)c1OC)-c1ccc(OC)c(=O)cc1[C@@H](NC(C)=O)CC2"
Response: n

Request: Do the same for "CN1CCN(CCCN2c3ccccc3Sc3ccc(Cl)cc32)CC1" please
Response: n

Request: Can you handle COc1cc2nc(N(C)CCCNC(=O)C3CCCO3)nc(N)c2cc1OC (configuration not stated) next?
Response: y

Request: Do the same for CN1C2CCC1CC(OC(=O)C(CO)c1ccccc1)C2 (configuration not stated) please
Response: n

Request: Also "Cc1ccc(-c2cc(C(F)(F)F)nn2-c2ccc(S(N)(=O)=O)cc2)cc1" , if possible.
Response: n

Request: Try this molecule next: "O=c1[nH]cc(F)c(=O)[nH]1"
Response: n

Request: CCc1cccc2c3c([nH]c12)C(CC)(CC(=O)O)OCC3 (configuration not stated) ?
Response: n

---

Assayed System: DNA polymerase III PolC-type (Bacillus subtilis (strain 168)) (UniProt P13267)
Sequence (P13267 whole entry, looked up): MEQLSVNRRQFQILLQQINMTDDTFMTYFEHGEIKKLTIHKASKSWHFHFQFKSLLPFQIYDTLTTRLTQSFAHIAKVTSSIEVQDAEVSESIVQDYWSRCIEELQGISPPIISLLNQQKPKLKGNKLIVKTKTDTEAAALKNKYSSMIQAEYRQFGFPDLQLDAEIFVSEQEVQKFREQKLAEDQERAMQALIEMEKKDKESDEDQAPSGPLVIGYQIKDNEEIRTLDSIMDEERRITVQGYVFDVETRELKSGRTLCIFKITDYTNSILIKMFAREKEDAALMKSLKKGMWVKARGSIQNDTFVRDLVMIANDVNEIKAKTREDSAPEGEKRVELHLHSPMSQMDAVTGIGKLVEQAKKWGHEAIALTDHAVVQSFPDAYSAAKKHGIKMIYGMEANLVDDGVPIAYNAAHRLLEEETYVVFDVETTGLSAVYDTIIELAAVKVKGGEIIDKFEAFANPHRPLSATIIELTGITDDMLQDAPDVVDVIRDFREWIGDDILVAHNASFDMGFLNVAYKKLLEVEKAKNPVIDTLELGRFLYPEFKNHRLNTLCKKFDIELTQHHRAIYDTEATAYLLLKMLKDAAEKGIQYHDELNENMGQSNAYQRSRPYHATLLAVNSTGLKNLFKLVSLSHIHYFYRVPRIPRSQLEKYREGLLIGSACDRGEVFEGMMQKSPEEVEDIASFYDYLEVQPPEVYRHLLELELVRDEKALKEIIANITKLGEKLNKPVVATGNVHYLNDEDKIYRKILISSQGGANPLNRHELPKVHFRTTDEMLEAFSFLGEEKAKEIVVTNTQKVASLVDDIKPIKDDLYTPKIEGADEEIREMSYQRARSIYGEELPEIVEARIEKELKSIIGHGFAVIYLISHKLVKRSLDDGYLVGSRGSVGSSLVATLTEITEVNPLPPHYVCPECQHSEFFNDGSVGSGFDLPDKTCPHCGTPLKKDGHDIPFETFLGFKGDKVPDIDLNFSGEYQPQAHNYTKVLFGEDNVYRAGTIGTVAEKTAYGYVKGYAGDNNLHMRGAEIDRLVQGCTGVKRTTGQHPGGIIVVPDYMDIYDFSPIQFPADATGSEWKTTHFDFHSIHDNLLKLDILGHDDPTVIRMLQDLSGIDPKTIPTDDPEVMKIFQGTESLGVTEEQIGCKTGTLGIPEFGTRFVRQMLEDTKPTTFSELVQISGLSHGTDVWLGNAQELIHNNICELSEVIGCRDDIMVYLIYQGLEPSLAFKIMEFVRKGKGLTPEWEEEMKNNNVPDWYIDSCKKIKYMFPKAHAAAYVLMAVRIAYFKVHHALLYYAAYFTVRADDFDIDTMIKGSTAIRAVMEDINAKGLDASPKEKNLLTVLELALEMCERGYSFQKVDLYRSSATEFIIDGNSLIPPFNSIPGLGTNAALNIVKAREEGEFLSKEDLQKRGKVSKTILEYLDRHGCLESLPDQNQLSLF
Method Summary: qHTS Validation Assay for the Inhibitors of DNA Replication in Gram-Positive Bacteria (AID 485295)
Details: Gram-positive bacterial DNA replication assay; series mostly up to 57.1 µM
Protocol: B Subtilis DNA polymerase III holoenzyme complex was assayed for DNA production by fluorescent detection of the double-stranded DNA product with PicoGreen dye. […] Reaction progress was measured in a ViewLux CCD imager in fluorescence intensity mode by using 480 nm excitation and 540 nm emission filter set. […] 2. Prepare sufficient quantities of Enzyme, Substrate and PicoGreen Quench mixes (according to Table II). […]
Active and inactive are the calls of the source. Calls come from the whole dose curve; as a rule, active = well fitted inhibition curve with a large enough effect; inconclusive = small, poorly fitted or top-dose-only effect; inactive = flat fitted curve, though single readings scatter.
Would you mind answering with one of these outcomes? true (1) for active, false (0) for inactive

Request: Per the assay record, what outcome was assigned to "O=C1N(c2ccccc2)c2ccccc2C1(Cc1ccncc1)Cc1ccncc1" ?
Response: false (0)

Request: "Cc1ccc(C(=O)Nc2ccc(S(=O)(=O)O)c3cc(S(=O)(=O)O)cc(S(=O)(=O)O)c23)cc1NC(=O)c1cccc(NC(=O)Nc2cccc(C(=O)Nc3cc(C(=O)Nc4ccc(S(=O)(=O)O)c5cc(S(=O)(=O)O)cc(S(=O)(=O)O)c45)ccc3C)c2)c1"
Response: true (1)

Request: Input CC(C(=O)O)c1cccc(C(=O)c2ccccc2)c1 (centres undefined)
Response: false (0)

Request: Next compound up: "CN(C)c1nc(N(C)C)nc(N(C)C)n1"
Response: false (0)
